target: Renilla luciferase (Renilla reniformis); assay: Non-detergent compound screen, Renilla luciferase (Example 6); assay type: biochemical; settings: inhibitor 100 μM
readout: Selectivity Value
Give bare numbers.

* COc1ccc(CNC(=O)/C=C/c2ccc3c(c2)c(CCN(C)C)cn3Cc2ccccc2)cc1 | 2.2

Return reported Selectivity Value values for all items listed beneath this line.
1. CCCCCCCC[N+](C)(C)CCc1c[nH]c2ccc(/C=C/C(=O)NCc3ccc(OC)cc3)cc12.[I-]
2. CN(C)CCc1c[nH]c2ccc(/C=C/C(=O)N3CCOCC3)cc12

Return:
[16, 2.9]

---

Can you tell me remaining activity at 100 µM for the items I'm about to list?
Target: firefly luciferase (Photinus pyralis, UniProt P08659)
Sequence (P08659 whole entry): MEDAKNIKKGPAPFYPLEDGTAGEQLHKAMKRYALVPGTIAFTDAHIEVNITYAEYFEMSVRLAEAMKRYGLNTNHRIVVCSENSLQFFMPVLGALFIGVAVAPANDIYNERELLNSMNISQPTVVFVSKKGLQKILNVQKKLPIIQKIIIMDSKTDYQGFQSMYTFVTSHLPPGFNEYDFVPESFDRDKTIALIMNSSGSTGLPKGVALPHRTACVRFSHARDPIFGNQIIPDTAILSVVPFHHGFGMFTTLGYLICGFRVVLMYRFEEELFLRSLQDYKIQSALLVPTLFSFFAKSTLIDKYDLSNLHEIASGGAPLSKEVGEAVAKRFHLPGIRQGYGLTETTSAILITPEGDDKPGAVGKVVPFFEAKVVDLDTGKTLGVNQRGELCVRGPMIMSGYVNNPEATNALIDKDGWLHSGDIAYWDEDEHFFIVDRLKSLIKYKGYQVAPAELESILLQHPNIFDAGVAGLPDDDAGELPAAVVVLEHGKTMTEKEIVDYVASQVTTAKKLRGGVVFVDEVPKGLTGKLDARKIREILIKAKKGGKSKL
Assay: Non-detergent compound screen, firefly luciferase (Example 6)
Assay type: biochemical
Conditions: inhibitor 100 μM; 0.5% Tergitol NP-9, 0.03% BDDABr; read-out: Retained Firefly Luciferase Value (%)
Method: Each compound was diluted into 200 mM MOPS pH 6.7, 4 μM MgSO4, 1 mM CDTA, 0.5% Tergitol NP-9, 0.05% Mazu-DF-204, 0.03% BDDABr, 30 mM thiourea, 1 mM bis-(2-mercaptoethylsulfone) (BMS), 4 μM CoA, and 1 μM 5-fluoroluciferin. […] The firefly luciferase and Renilla luciferase enzymes were diluted as described in Examples 3 and 5. […] The retained Renilla and firefly luciferase-mediated luminescence and selectivity values for each inhibitor tested are listed in Table 6.
Please report the result as a number followed by the unit.

Observe how each entry below is paired with its result.
• COc1ccc(CNC(=O)/C=C/c2ccc3ncccc3c2)cc1 = 99%
• CN(C)CCc1c[nH]c2ccc(/C=C/C(=O)N3CCOCC3)cc12 = 101%
• COc1ccc(CNC(=O)/C=C/c2ccc3[nH]cc(CCN(C)C)c3c2)c(OC)c1 = 102%

Return reported remaining activity at 100 µM values for all items listed beneath this line.
1. COc1ccc(CNC(=O)/C=C/c2ccc3[nH]cc(CN(C)C)c3c2)cc1
2. COc1ccc(CCNC(=O)/C=C/c2ccc3[nH]cc(CCN(C)C)c3c2)cc1

Return:
99%
98%

---

target: firefly luciferase (Photinus pyralis, UniProt P08659); test: Non-detergent compound screen, firefly luciferase (Example 6); assay type: biochemical; conditions: inhibitor 1000 μM; 0.5% Tergitol NP-9, 0.03% BDDABr; read-out: Retained Firefly Luciferase Value (%)
Can you tell me remaining activity at 1000 µM for the items I'm about to list?
One number for each entry, in %.

- C=C(C(=O)NCc1ccc(OC)cc1)c1ccc2oc(=O)cc(C)c2c1: 103
- C=C(C(=O)NCc1ccc(OC)cc1)c1ccc2ncccc2c1: 91
- COc1cc(OC)c(CNC(=O)/C=C/c2ccc3[nH]cc(CCN(C)C)c3c2)c(OC)c1: 101
- COc1ccc(COC(=O)/C=C/c2ccc3[nH]cc(CCN(C)C)c3c2)cc1: 98

Return reported remaining activity at 1000 µM values for all items listed beneath this line.
1. COc1ccc(CNC(=O)/C=C/c2ccc3c(ccc[n+]3C)c2)cc1.[I-]
2. COc1ccc(CNC(=O)/C(C#N)=C/c2ccc3[nH]cc(CCN(C)C)c3c2)cc1
3. COc1ccc(CNC(=O)/C(C#N)=C/CCCCCCCBr)cc1

Return:
82
132
101

---

biological target: firefly luciferase (Photinus pyralis, UniProt P08659); assay: Non-detergent compound screen, firefly luciferase (Example 6); format: biochemical; conditions: inhibitor 10 μM; 0.5% Tergitol NP-9, 0.03% BDDABr; read-out: Retained Firefly Luciferase Value (%)
Can you tell me remaining activity at 10 µM for the items I'm about to list?
Please report the result as a number followed by the unit.

Observe how each entry below is paired with its result.
• COc1ccc(CNC(=O)/C=C/c2ccc3[nH]cc(CN(C)C)c3c2)cc1 = 100%
• CN(C)CCc1c[nH]c2ccc(/C=C/C(=O)N3CCOCC3)cc12 = 102%

Return reported remaining activity at 10 µM values for all items listed beneath this line.
1. CN(C)CCc1c[nH]c2ccc(/C=C/C(=O)NCc3ccc([N+](=O)[O-])cc3)cc12
2. COc1ccc(CNC(=O)/C=C/c2ccc3c(ccc[n+]3C)c2)cc1.[I-]
3. CCCC[N+](C)(C)CCc1c[nH]c2ccc(/C=C/C(=O)NCc3ccc(OC)cc3)cc12.[I-]
4. COc1ccc(CCNC(=O)/C=C/c2ccc3[nH]cc(CCN(C)C)c3c2)cc1
5. COc1ccc(CNC(=O)/C(C#N)=C/c2ccc3[nH]cc(CCN(C)C)c3c2)cc1

Return:
1: 102%; 2: 103%; 3: 100%; 4: 100%; 5: 99%

---

Biological target: Renilla luciferase (Renilla reniformis, UniProt P27652)
Sequence (P27652 1-311): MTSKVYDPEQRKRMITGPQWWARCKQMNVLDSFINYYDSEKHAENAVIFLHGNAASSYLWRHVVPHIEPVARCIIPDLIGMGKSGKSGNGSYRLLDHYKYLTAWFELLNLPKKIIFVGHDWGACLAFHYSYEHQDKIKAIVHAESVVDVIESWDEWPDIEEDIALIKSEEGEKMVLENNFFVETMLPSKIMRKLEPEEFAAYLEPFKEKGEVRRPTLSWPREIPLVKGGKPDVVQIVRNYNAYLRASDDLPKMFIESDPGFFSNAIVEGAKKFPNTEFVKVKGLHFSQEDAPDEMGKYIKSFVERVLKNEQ
Test: Quaternary ammonium/phosphonium detergent screen, Renilla luciferase (Example 5)
Type: biochemical
Conditions: final conc. 0.10% detergent
Can you tell me Selectivity Value for the items I'm about to list?
Numbers only.

* CC[N+](C)(C)c1cccc(O)c1 [Edrophonium chloride] | 1.1
* CCCCCCCCCCCC[N+](C)(C)Cc1ccccc1.[Br-] [Benzyldimethyldodecylammonium bromide] | 48.5
* CCCCCCCCCCCCCCCC[N+](C)(C)Cc1ccccc1.[Cl-] [Benzyldimethylhexadecylammonium chloride] | 32.2

Return reported Selectivity Value values for all items listed beneath this line.
1. CCCC[P+](CCCC)(CCCC)Cc1ccc(C)cc1.[Cl-]
2. CC[N+](CC)(CC)Cc1ccccc1.[Br-] [Benzyltriethylammonium bromide]

Return:
1. 3.3
2. 0.9

---

Can you tell me Selectivity Value for the items I'm about to list?
Molecular target: Renilla luciferase (Renilla reniformis, UniProt P27652)
Sequence (P27652 1-311): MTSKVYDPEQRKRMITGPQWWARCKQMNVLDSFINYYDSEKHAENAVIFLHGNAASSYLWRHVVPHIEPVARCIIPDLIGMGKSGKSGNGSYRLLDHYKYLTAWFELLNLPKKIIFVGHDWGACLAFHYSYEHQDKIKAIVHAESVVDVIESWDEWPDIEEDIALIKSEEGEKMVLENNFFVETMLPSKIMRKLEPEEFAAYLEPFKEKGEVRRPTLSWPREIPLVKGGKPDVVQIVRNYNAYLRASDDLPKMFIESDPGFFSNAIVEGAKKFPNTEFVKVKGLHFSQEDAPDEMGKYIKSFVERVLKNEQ
Test: Non-detergent compound screen, Renilla luciferase (Example 6)
Assay type: biochemical
Settings: inhibitor 153 μM
Answers are plain numbers.

* COc1ccc(CNC(=O)/C(C#N)=C/CCCCCCCBr)cc1 | 1.05
* C=C(C(=O)NCc1ccc(OC)cc1)c1ccc2[nH]ccc2c1 | 1.1

Return reported Selectivity Value values for all items listed beneath this line.
1. CCCCCCNC(=O)/C=C/c1ccc2[nH]cc(CCN(C)C)c2c1
2. C=C(C(=O)NCc1ccc(OC)cc1)c1ccc2ncccc2c1

Return:
1. 1.0
2. 1.1

---

molecular target: firefly luciferase (Photinus pyralis, UniProt P08659); assay: Non-detergent compound screen, firefly luciferase (Example 6); assay type: biochemical; settings: inhibitor 10 μM; 0.5% Tergitol NP-9, 0.03% BDDABr; read-out: Retained Firefly Luciferase Value (%)
readout: remaining activity at 10 µM (%)
Give bare numbers, in %.

Observe how each entry below is paired with its result.
* COc1ccc(CNC(=O)/C=C/c2ccc3[nH]cc(CCCN(C)C)c3c2)cc1 [Compound 3071] | 101
* COc1ccc(CNC(=O)/C=C/c2ccc3[nH]ccc3c2)cc1 [Compound 3056] | 101

Proceed to the following item.
Lookup result for COc1cc(CNC(=O)/C=C/c2ccc3[nH]cc(CCN(C)C)c3c2)cc(OC)c1OC [Compound 3072] ; measured remaining activity at 10 µM: 101
